All values here come from the METLIN SMRT retention time set (Domingo-Almenara et al. 2019).

- TEST NAME: gradient 5% acetonitrile 3 min, to 50% in 2 min, to 85% in 15 min, held 3 min, 100 µL/min
- APPLIED CONDITIONS: column: Zorbax Extend-C18 2.1 x 50 mm; eluents: water / acetonitrile, 0.1% formic acid
PROPERTY LABEL: RP-LC retention time (s)

INSERT INTO assay_data (compound, experimental_value) VALUES
  ('CCc1ccc(-c2nc(-c3ccc4c(c3)nnn4CCN3CCOCC3)no2)cc1', 663),
  ('CCOc1ccc(S(=O)(=O)N2CCCC(C(=O)Nc3cc(C)ccc3OC)C2)cc1 (stereo not drawn)', 1090),
  ('O=C(Cc1csc2nc(-c3ccccc3)cn12)Nc1ccc(F)cc1F', 809),
  ('Cc1cccc(CN2CC(=O)N(c3cccc(Cl)c3)[C@@H]3CS(=O)(=O)C[C@@H]32)c1', 892),
  ('COc1ccc(NC(=O)N2CCC3(C2)C(=O)Nc2ccc(OC)cc23)c(OC)c1 (stereo not drawn)', 715),
  ('COc1ccccc1NC(=O)C1CC(=O)N(c2ccc3oc(C)nc3c2)C1 (stereo not drawn)', 726),
  ('CCN1CCN(CCNC(=O)Cn2c(=O)n(-c3ccc(F)cc3)c3ncccc32)CC1', 583),
  ('COC(=O)Cn1c(C2CC(=O)N(c3cccc(OC)c3)C2)nc2ccccc21 (stereo not drawn)', 718),
  ('O=C(Cn1nc(-c2ccccc2)c2cc(Cl)ccc21)NCc1cccnc1', 712),
  ('O=C(NCc1ccc(F)cc1)c1cn(-c2ccc(NC(=O)C3CC3)cn2)cn1', 748),
  ('O=C(N1CCCC(c2nnnn2-c2ccccc2)C1)C1(c2ccccc2)CC1 (stereo not drawn)', 839),
  ('O=C(NC1CC1)c1ccc(OCC2CCN(C(=O)c3ccc(Br)o3)CC2)cc1', 830),
  ('CC(C)NC(=O)c1ccc(-c2nc3cc(NS(=O)(=O)c4ccc(F)cc4F)ccc3n2C)cc1', 697),
  ('COc1ccc(N2C(=O)N[C@@H]3C[C@]2(C)Oc2ccc(C)cc23)cc1OC', 735),
  ('Cc1ccc(NC(=O)Cn2nc3c(Oc4cccc(F)c4)nccn3c2=O)c(F)c1', 878),
  ('CCc1ccccc1NC(=O)Cn1c(C)nc2onc(C)c2c1=O', 845),
  ('Cc1ccc(C(=O)Nc2ccc(-c3nnc4n3CCCC4)cc2)s1', 680),
  ('CCOc1ccc(S(=O)(=O)N2CCC(C(=O)N3CCN(C)CC3)CC2)cc1C', 654),
  ('CCc1cccc(N2C=C(C(=O)OC)S(=O)(=O)c3ccccc32)c1', 930),
  ('COC1CN(c2cccc(F)c2)C12CCN(S(=O)(=O)c1cccc3cccnc13)CC2 (stereo not drawn)', 1110),
  ('Cc1cc(C)cc(C(=O)NC(C)C(=O)Nc2nc3ccccc3[nH]2)c1 (stereo not drawn)', 688),
  ('O=C(Nc1ccc2nc(N3CCC(N4CCCCC4)CC3)cc(C(=O)O)c2c1)c1cccc(Cl)c1', 601),
  ('O=C(Cc1cccn1-c1ccc(Cl)cc1)NCCCN1CCOCC1', 625),
  ('COc1cccc(CNC(=O)COc2ccc(NC(=O)C3CC3)cn2)c1OC', 591),
  ('ONC(=NCc1ccccc1)c1ccccc1', 690),
  ('CN(C)c1ccc(C(=O)N2CCCC2c2nc(-c3ccc(F)cc3F)no2)cc1 (stereo not drawn)', 984),
  ('Cc1cc2n(n1)CCCN2C(=O)CCC(=O)N1CCN(c2cc(Cl)ccc2C)CC1', 852),
  ('CCc1ccc(NC(=O)CN2CCc3[nH]c4c(OC)ccc(Cl)c4c(=O)c3C2)cc1', 661),
  ('Cc1cccc(NC(=O)c2cnc3c(c2)c(=O)n(C)c(=O)n3-c2ccc(F)cc2)c1', 904),
  ('CC(C)c1ccc(S(=O)(=O)c2ccc(=O)n(CC(=O)N3CCN(c4ccc(F)cc4)CC3)n2)cc1', 1000),
  ('Cc1ccc(-n2ccc(=O)c(-c3nc(-c4ccccc4Br)no3)n2)cc1', 950),
  ('O=C(NCc1[nH]nc2ccccc12)c1ccc2c(c1)OCO2', 704),
  ('Cc1noc(C)c1CCC(=O)N1CCCn2ccnc2C1C(C)C (stereo not drawn)', 590),
  ('CC(=O)c1ccc(C)cc1OC(=O)c1cccc2nc(C)oc12', 661),
  ('Cc1ccc(NC(=O)N2CCC(n3cnc4cccnc43)CC2)c(Cl)c1', 676),
  ('CCCCOC(=O)CSc1nnc(-c2ccc(Br)cc2)o1', 1190),
  ('COc1cc(OC)c(NC(=O)c2cc3c(=O)oc4ccccc4c3n2C)cc1Cl', 1030),
  ('O=C(CCn1nnc2cc(-c3noc(-c4ccccc4Br)n3)ccc21)N1CCCC1', 954);

---

- TEST NAME: gradient 5% acetonitrile 3 min, to 50% in 2 min, to 85% in 15 min, held 3 min, 100 µL/min
- APPLIED CONDITIONS: column: Zorbax Extend-C18 2.1 x 50 mm; eluents: water / acetonitrile, 0.1% formic acid
// returns 0 unless RP-LC retention time is strictly below 800 s, in which case 1

INSERT INTO results (molecule, answer_label) VALUES
  ('COC(=O)c1ccc(NC(=O)C2c3cc(F)ccc3CCN2C(=O)OC)cc1 (stereo not drawn)', 0),
  ('COc1cccc(CN2CCn3c(nnc3[C@@H]3C[C@@H](O)CN3Cc3cccnc3)C2)c1OC', 1),
  ('CSc1ccc(CNC(=O)c2cn3cc(C)ccc3n2)cc1', 1),
  ('CC1CCC2(CC1)NC(=O)N(CC(=O)NCc1ccccc1F)C2=O (stereo not drawn)', 1),
  ('CN(c1ncccc1CNc1nc(Nc2ccc3c(c2)CC(=O)N3)ncc1C(F)(F)F)S(C)(=O)=O', 1),
  ('Nc1ccc2c(c1)nnn2-c1ccccc1', 1),
  ('CCCCCNC(=O)C1CCN(c2cc(Sc3cc(C)ccc3C)ncn2)CC1', 0),
  ('Cc1cc(C)cc(NC(=O)N2CCC3(CC2)NC(=O)c2cc(F)ccc2N3C)c1', 1),
  ('Cc1nnc(NC(=O)c2cn(Cc3cccc(F)c3)nc2OCc2cccc(F)c2)s1', 0),
  ('CCn1c(=O)sc2cc(S(=O)(=O)N3CCC(C(=O)NC4CCCC4)CC3)ccc21', 0),
  ('COC(=O)c1c(C)[nH]c(C(=O)N2CCC(CC(=O)NCCc3c[nH]c4ccc(C)cc34)CC2)c1C', 1),
  ('CCCn1cc(-c2ccncc2)cc1C(=O)NC1CCCCC1', 1),
  ('Cn1c(=O)n(C)c2cc(Sc3ccccc3)c(NC(=O)C3CC3)cc21', 0),
  ('COc1ccccc1NC(=O)N1CCN(Cc2nc3cccnc3n2-c2ccccc2)CC1', 1),
  ('Cc1sc(NC(=O)CCc2ccccc2)nc1-c1ccc2c(c1)NC(=O)CO2', 0),
  ('O=C(Nc1ccc(F)cc1F)C1CCCN(C(=O)Cc2cccc3ccccc23)C1 (stereo not drawn)', 0),
  ('CCOc1ccc(CN2CCC3(CCC3O)CC2)cc1OCC (stereo not drawn)', 1),
  ('CCn1ccc(C(=O)N2CC[C@H]3N(CCOC)S(=O)(=O)CC[C@]3(C(=O)N3CCOCC3)C2)n1', 1),
  ('COc1cccc(CNC(=O)Cn2c(N(C)Cc3ccccc3)nc(C)cc2=O)c1OC', 1),
  ('CC1CCN(C(=O)c2cn(-c3cc(-c4nc(C5CC5)no4)ccn3)cn2)CC1', 0),
  ('CCn1c(=O)n(-c2ccc(F)cc2)c2nc(-c3ccc(F)cc3F)nc(C(N)=O)c21', 0),
  ('CCOC(=O)c1c(C)c(CCC(=O)NCCN2CCCCCC2)c(C)n1C', 1),
  ('COc1ccc2c(c1)c(CN1CCC(C(=O)NCCc3ccco3)CC1)cn2C', 1),
  ('CC(C)c1noc(-c2cccnc2N2CCCN(Cc3ccccc3Cl)CC2)n1', 1),
  ('Cc1nn(C(C)C(=O)NCCC(C)C)c(=O)c2nn(-c3ccccc3)c(C)c12 (stereo not drawn)', 1),
  ('CCCNC(=O)c1sc(-n2nc(C)c(Cl)c2C)nc1C', 0),
  ('COC(=O)c1cnc2nc(C)ccc2c1Nc1ccccc1F', 1),
  ('Cc1ccc(-c2cc3c(=O)n(Cc4noc(CN5CCOCC5)n4)ccn3n2)cc1', 1),
  ('Clc1cccc(-c2nc(Cn3ccnc3)no2)c1', 1),
  ('CCOCCCNC(=O)C1CCCN(c2nc3ccccc3n(Cc3ccc(C)cc3)c2=O)C1 (stereo not drawn)', 0),
  ('O=C(Nc1ccc2c(c1)N(C(=O)c1ccccc1)CCC2)c1cccs1', 0);

---

- TEST NAME: gradient 5% acetonitrile 3 min, to 50% in 2 min, to 85% in 15 min, held 3 min, 100 µL/min
- APPLIED CONDITIONS: column: Zorbax Extend-C18 2.1 x 50 mm; eluents: water / acetonitrile, 0.1% formic acid
PROPERTY LABEL: RP-LC retention time (s)

INSERT INTO results (molecule, experimental_value) VALUES
  ('Cc1ccc(C)c(N2CCN(C(=O)c3cnc4ncnn4c3C)CC2)c1', 829),
  ('O=C(Nc1ccc(-c2ccc3nnc(-c4ccncc4)n3n2)cc1)c1cccc(Cl)c1', 675),
  ('O=C(Nc1ccc(Cl)cc1F)N1CCc2nc[nH]c2C1', 584),
  ('CC(C)Cn1c(-c2cccc(C(=O)NC(C)C)c2)nc2cccnc21', 763),
  ('CCOCCOC1CCN(S(=O)(=O)c2cccc(OC)c2)CC1', 881),
  ('COCCn1cc(C(=O)N2CCCc3ccccc32)c2nn(-c3ccccc3)c(=O)c-2c1', 943),
  ('COCCOC1CCN(S(=O)(=O)Cc2ccccc2F)CC1', 809),
  ('COCc1nc2cccnc2n1C1CCN(C(=O)Nc2ccc(Br)c(C)c2)CC1', 753),
  ('CN1C(=O)c2cc(C(=O)NC3CCCCC3)nn2CC1(C)C(=O)NCc1ccc(F)cc1 (stereo not given)', 776),
  ('Cc1nc(CCNC(=O)NC2CCCCC2)no1', 649),
  ('Cn1cnnc1CC1CCN(C(=O)Nc2ccccc2)C1 (stereo not given)', 587),
  ('O=C(c1cccs1)N1CCc2ccc([N+](=O)[O-])cc2C1', 792),
  ('CN1C(=O)COc2cc(-c3noc(C(=O)N4CCCCC4)n3)ccc21', 841),
  ('COC(=O)c1c(C)[nH]c(C(=O)N2CCCC(C(=O)NCCN(C)C3CCCCC3)C2)c1C (stereo not given)', 626),
  ('Cc1nc(CC(=O)Nc2c(F)cccc2F)sc1C(=O)NC1CC1', 660),
  ('O=C(Cn1cc(C(=O)C(=O)N2CCCC2)c2ccccc21)NCc1ccc2c(c1)OCCCO2', 786),
  ('CCC(=O)N1CCN(C(=O)c2ccccc2)CC1', 693),
  ('COC(=O)c1ccc(NC(=O)Cn2c(=O)cc(-c3nc(C(C)C)no3)c3ccccc32)cc1', 990),
  ('Cc1coc2c(C)c3oc(=O)c(CCC(=O)N4CCN(c5ccccn5)CC4)c(C)c3cc12', 795),
  ('COc1ccc(-c2noc(-c3nnn4c3COC(c3ccc(C)cc3C)C4)n2)cc1F (stereo not given)', 1260);
